target: EGFR T790M L858R (Homo sapiens, UniProt P00533, L858R/T790M); test: EGFR T790M L858R biochemical assay (Caliper mobility shift); details: 5 μM ATP; apparent Ki (Morrison fit) converted by Cheng-Prusoff, Km of ATP 1.3 μM
Sequence (P00533 25-1210 T790M/L858R): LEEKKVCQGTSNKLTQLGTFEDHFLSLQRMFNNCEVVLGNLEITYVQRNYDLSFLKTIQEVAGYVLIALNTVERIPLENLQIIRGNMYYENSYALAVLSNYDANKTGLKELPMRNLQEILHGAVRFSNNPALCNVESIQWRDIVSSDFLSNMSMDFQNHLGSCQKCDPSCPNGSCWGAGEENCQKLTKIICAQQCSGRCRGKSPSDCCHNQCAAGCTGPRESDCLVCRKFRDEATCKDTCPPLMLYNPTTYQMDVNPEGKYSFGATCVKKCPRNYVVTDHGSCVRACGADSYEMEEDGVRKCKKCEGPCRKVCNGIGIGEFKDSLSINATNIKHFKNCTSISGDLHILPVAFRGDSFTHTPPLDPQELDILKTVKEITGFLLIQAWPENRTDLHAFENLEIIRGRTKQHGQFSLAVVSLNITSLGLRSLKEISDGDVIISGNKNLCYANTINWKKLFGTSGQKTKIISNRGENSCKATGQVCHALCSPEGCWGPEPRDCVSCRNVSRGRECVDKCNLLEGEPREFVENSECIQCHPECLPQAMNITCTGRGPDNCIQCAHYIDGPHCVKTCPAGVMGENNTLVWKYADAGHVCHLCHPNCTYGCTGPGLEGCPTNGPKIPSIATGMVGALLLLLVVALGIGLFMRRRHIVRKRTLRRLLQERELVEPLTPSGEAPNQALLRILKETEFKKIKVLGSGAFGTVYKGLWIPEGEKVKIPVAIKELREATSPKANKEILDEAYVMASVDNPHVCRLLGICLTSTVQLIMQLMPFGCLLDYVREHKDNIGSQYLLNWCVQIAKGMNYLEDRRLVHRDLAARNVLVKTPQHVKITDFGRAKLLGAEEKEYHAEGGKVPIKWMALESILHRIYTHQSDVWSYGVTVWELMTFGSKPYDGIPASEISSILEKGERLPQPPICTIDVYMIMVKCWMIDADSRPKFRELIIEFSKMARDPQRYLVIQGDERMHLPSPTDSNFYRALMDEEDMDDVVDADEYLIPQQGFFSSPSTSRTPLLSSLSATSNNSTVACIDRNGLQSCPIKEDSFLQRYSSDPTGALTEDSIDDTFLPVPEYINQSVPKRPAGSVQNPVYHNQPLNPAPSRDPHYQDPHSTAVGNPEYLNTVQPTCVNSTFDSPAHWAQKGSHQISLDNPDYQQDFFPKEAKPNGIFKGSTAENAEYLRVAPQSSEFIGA
observation-type: Ki (nM)

CC[C@H](C)n1nc(N2CC3(COC3)C2)c2cnc(Nc3ccnc(OCC(C)(C)S(C)(=O)=O)n3)cc21 [Example 71]
4.7
CC1COCC(C)N1c1nn(C(C)C)c2cc(Nc3ccnc(-c4cnn(S(=O)(=O)C5CC5)c4)n3)ncc12 (centres unmarked) [Example 180]
302
CCC(C)n1nc(N2CCNC2=O)c2cnc(Nc3ccnc(N4CC[C@H](O)[C@H](F)C4)n3)cc21 (some centres unmarked) [Example 195]
1
CC[C@@H](C)n1nc(N2CC3(COC3)C2)c2cnc(Nc3ccnc(OCC(C)(C)S(C)(=O)=O)n3)cc21 [Example 96]
4.6

a = CCC(C)n1nc(N2CCNC2=O)c2cnc(Nc3ccnc(N4CC[C@H](OC)[C@H](F)C4)n3)cc21 (mixture of isomers) [Example 98]
b = CC(C)n1nc(N2CC(F)(F)C2)c2cnc(Nc3ccnc(-c4cnn(S(=O)(=O)C5CC5)c4)n3)cc21 [Example 154]
Could you check which of a and b has a smaller value for Ki? Mark your selection by writing its label.
a
(a: 1 nM, b: 2.8 nM)

A = CC(C)n1nc(N2CC(C(=O)NC3CC(O)C3)C2)c2cnc(Nc3ccnc(-c4cnn(S(=O)(=O)C5CC5)c4)n3)cc21 (centres unmarked) [Example 170]
B = CC1CNC(=O)N1c1nn(C(C)C)c2cc(Nc3ccnc(N4CC[C@H](O)[C@H](F)C4)n3)ncc12 (relative stereo) [Example 128]
For the two items A and B , which reports the higher Ki value? Label of pick, please.
B

----------
target: phosphor-EGFR in H1975(L585R/T790M) mutant EGFR expressing cells (Homo sapiens, UniProt P00533, L858R/T790M); experiment: H1975 pEGFR MSD cellular assay; settings: NCI-H1975 cells, serum starved, 1 hour compound incubation, pEGFR Tyr1068 MSD; read-out: HI975 pEGFR EC50
Sequence (P00533 25-1210 T790M/L858R): as above
observation-type: EC50 (nM)

CCC(C)n1nc(N2CC[C@H](O)C2=O)c2cnc(Nc3ccnc(-c4cnn(S(=O)(=O)C5CC5)c4)n3)cc21 (stereo partly drawn)
85.6

A = CCC(C)n1nc(N2CCNC2=O)c2cnc(Nc3ccnc(N4CCC(S(C)(=O)=O)CC4)n3)cc21 (racemic)
B = CC(C)n1nc(N2CCOCC2)c2cnc(Nc3ccnc(N4CCC(O)C(C)(C)C4)n3)cc21 (stereo not drawn)
Choose between A and B : whose measured EC50 value is numerically larger? Select an item and report its label.
A
(A: 710 nM, B: 111 nM)

----------
biological target: EGFR del746-750 T790M (Homo sapiens, UniProt P00533, DEL746-750/T790M); experiment: EGFR del746-750 T790M biochemical assay (Caliper mobility shift); details: 5 μM ATP; apparent Ki (Morrison fit) converted by Cheng-Prusoff, Km of ATP 2.1 μM; read-out: EGFR(T790M/d746-750) Ki
Sequence (P00533 with tags, fused parts or gaps DEL746-750/T790M limits assumed): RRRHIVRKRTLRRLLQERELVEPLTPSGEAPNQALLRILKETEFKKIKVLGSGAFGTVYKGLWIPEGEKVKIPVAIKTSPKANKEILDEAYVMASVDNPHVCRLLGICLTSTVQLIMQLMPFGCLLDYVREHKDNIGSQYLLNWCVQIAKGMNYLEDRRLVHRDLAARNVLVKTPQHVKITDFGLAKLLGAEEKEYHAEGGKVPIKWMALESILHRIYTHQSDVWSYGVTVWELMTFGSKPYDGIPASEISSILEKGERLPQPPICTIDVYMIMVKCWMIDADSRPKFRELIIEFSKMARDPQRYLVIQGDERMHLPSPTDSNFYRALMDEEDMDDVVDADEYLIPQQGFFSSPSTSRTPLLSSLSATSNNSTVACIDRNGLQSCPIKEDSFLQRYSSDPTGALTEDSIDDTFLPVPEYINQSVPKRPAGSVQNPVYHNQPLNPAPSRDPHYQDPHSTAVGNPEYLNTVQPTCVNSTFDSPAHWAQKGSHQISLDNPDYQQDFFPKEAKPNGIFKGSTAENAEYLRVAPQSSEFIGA
observation-type: Ki (nM)

# example entries with known answers
CC(C)n1nc(N2CC[C@@H](N)C2=O)c2cnc(Nc3ccnc(N4CCC(C)(O)CC4)n3)cc21
50.9
CC[C@@H](C)n1nc(N2CC[C@@H](O)C2)c2cnc(Nc3ccnc(N4CC[C@](C)(C(N)=O)C4)n3)cc21 (relative stereo)
2.1
CC(C)n1nc(N2CC3(C2)CS(=O)(=O)C3)c2cnc(Nc3ccnc(N4CCC(C)(O)CC4)n3)cc21
9.7
COCC1CN(c2nn(C(C)C)c3cc(Nc4ccnc(-c5cnn(S(=O)(=O)C6CC6)c5)n4)ncc23)C1
0.8
COC1CCN(c2nccc(Nc3cc4c(cn3)c(N)nn4C[C@H]3CC[C@H](N)CC3)n2)CC1
9.8
CC(C)n1nc(NCC(F)(F)F)c2cnc(Nc3ccnc(-c4cnn(S(=O)(=O)C5CC5)c4)n3)cc21
10.8
CC(C)n1nc(N2CC(C(=O)N3CC[C@H](CO)C3)C2)c2cnc(Nc3ccnc(-c4cnn(S(=O)(=O)C5CC5)c4)n3)cc21
0.7
CCN1CCN(c2nn(C(C)C)c3cc(Nc4ccnc(-c5cnn(S(=O)(=O)C6CC6)c5)n4)ncc23)C1=O
6.3
CC(C)n1nc(N2CC3(COC3)C2)c2cnc(Nc3ccnc(N4CC[C@](C)(O)[C@H](F)C4)n3)cc21 (racemic)
16.1

A = CC(C)n1nc(N2CC(O)(C(F)(F)F)C2)c2cnc(Nc3ccnc(N4CC[C@H](O)[C@H](F)C4)n3)cc21 (racemic)
B = CC(C)n1nc(N2CCN(C)C2=O)c2cnc(Nc3ccnc(N4CCC(O)C(F)C4)n3)cc21 (stereo not drawn)
C = CC(C)n1nc(N2CC[C@@H](O)C2)c2cnc(Nc3ccnc(N4C[C@@H](F)[C@@H](O)C(C)(C)C4)n3)cc21 (racemic)
D = CC[C@H](C)n1nc(N2CC[C@@H](O)C2)c2cnc(Nc3ccnc(N4CC[C@](C)(C(N)=O)C4)n3)cc21 (relative stereo)
E = CCC(C)n1nc(N2CC[C@@H](O)C2)c2cnc(Nc3ccnc(N4CC[C@H](O)[C@H](F)C4)n3)cc21 (stereo partly drawn)
rank_up(items): orders items by reported Ki in ascending numerical order. Provide your answer as the labels ordered per the instruction.
E, C, A, B, D
(E: 1.1 nM, C: 2.5 nM, A: 6.3 nM, B: 13.8 nM, D: 111 nM)

----------
Target: EGFR del746-750 T790M (Homo sapiens, UniProt P00533, DEL746-750/T790M)
Experiment: EGFR del746-750 T790M biochemical assay (Caliper mobility shift)
Conditions: 5 μM ATP; apparent Ki (Morrison fit) converted by Cheng-Prusoff, Km of ATP 2.1 μM; read-out: EGFR(T790M/d746-750) Ki
Protocol: The exemplified compounds described herein were tested according to the assay below. The enzyme data reported in Tables 4-5 is generally a representative of multiple experiments. Reactions proceed for 30 minutes at room temperature (22° C.) and are terminated with 80 mM 2,2′,2″,2″′-(ethane-1,2-diyldinitrilo)tetraacetic acid (EDTA). Product is detected using the Caliper mobility shift detection method where product and substrate are electrophoretically separated and measured.
pKi: −log10 of the molar value.
observation-type: pKi

Solved cases below.
CCC(C)n1nc(N2CCNC2=O)c2cnc(Nc3ccnc(N4CCC(S(C)(=O)=O)CC4)n3)cc21 (racemic) [Example 102]
7.91
CC(C)NC(=O)C1CN(c2nn(C(C)C)c3cc(Nc4ccnc(-c5cnn(S(=O)(=O)C6CC6)c5)n4)ncc23)C1 [Example 169]
8.92
CCC(C)n1nc(N2CC[C@H](O)C2=O)c2cnc(Nc3ccnc(N4CC[C@@H](O)[C@@H](F)C4)n3)cc21 (stereo partly shown) [Example 201]
7.85
CC(C)n1nc(NC2CCS(=O)(=O)C2)c2cnc(Nc3ccnc(-c4cnn(S(=O)(=O)C5CC5)c4)n3)cc21 (stereo not shown) [Example 107]
8.82
CC(O)C(=O)N1CCN(c2nn(C(C)C)c3cc(Nc4ccnc(N5CCC(C)(O)CC5)n4)ncc23)CC1 (stereo not shown) [Example 136]
7.40
CC(C)n1nc(N2CC3(CC(O)C3)C2)c2cnc(Nc3ccnc(N4CC[C@H](O)[C@H](F)C4)n3)cc21 (racemic) [Example 175]
8.59

a = CCC(C)n1nc(N2CCNC2=O)c2cnc(Nc3ccnc(N4CC[C@H](O)[C@H](F)C4)n3)cc21 (stereo partly shown) [Example 195]
b = CC(C)n1nc(N2CC(C(C)(C)C(N)=O)C2)c2cnc(Nc3ccnc(N4CCC(C)(O)CC4)n3)cc21 [Example 84]
c = CC(C)n1nc(N2CC(C(=O)N3CC[C@@H](CO)C3)C2)c2cnc(Nc3ccnc(-c4cnn(S(=O)(=O)C5CC5)c4)n3)cc21 [Example 167]
Would you mind ranking these compounds by ascending pKi? Give the labels in the order requested.
b, a, c

----------
biological target: EGFR T790M L858R (Homo sapiens, UniProt P00533, L858R/T790M); assay: EGFR T790M L858R biochemical assay (Caliper mobility shift); conditions: 5 μM ATP; apparent Ki (Morrison fit) converted by Cheng-Prusoff, Km of ATP 1.3 μM
pKi: −log10 of the molar value.
observation-type: pKi

Examples with answers:
CO[C@H]1CCN(c2nccc(Nc3cc4c(cn3)c(N3CC5(COC5)C3)nn4C(C)C)n2)C[C@H]1F (racemic)
8.96
C[C@@H](n1nc(N2CC[C@@H](O)C2)c2cnc(Nc3ccnc(N4CC[C@H](O)[C@H](F)C4)n3)cc21)C(F)(F)F (relative stereo)
8.80
CC(C)n1nc(N2CC(C)(C)NC2=O)c2cnc(Nc3ccnc(N4CCC(O)C(F)C4)n3)cc21 (racemic)
8.74
CCC(C)n1nc(N2CC[C@@H](O)C2)c2cnc(Nc3ccnc(N4CCC(S(C)(=O)=O)CC4)n3)cc21 (stereo partly drawn)
8.72
CCC(C)n1nc(N2CCNC2=O)c2cnc(Nc3ccnc(OCC(C)(C)S(C)(=O)=O)n3)cc21 (racemic)
8.49

I = CC(C)n1nc(N2CCCC2=O)c2cnc(Nc3ccnc(N4CC[C@H](O)[C@H](F)C4)n3)cc21 (racemic)
II = CC(O)C1CN(c2nn(C(C)C)c3cc(Nc4ccnc(-c5cnn(S(=O)(=O)C6CC6)c5)n4)ncc23)C1 (stereo not drawn)
Parameter check: reported pKi is higher for which label, I or II ? Answer by stating the label of the chosen item.
II
(II: 9.22, I: 8.77)

Reference source for all entries: patent US9951064B2
